The reported measurements were obtained from paper PMC5540273.

Below, each entry is listed alongside its reported %Inh.
# System: PHKG2;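 further: KINOMEscan kinase panel screen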
# setup_conditions: concentration: 1 μM, replicates: in singlicate; n = 1
Please reply with the bare figure in % and do not write the unit itself.

molecule | %Inh [%]
Cl.Cl.Cl.N#Cc1ccc(CCNc2nccc(-c3cccc(CN4CCNCC4)c3)n2)cc1 | 23
COC(=O)c1cccc(NC(=O)NC2CCN(c3ccnc(Nc4ccc(F)cc4)n3)C2)c1 (stereo not drawn) | 0
Fc1ccc(-c2nc[nH]c2-c2ccncc2)cc1 | 3
CCn1c(-c2c(N)noc2C)nc2cnccc21 | 0
O=C(Nc1n[nH]c2nc(-c3cccs3)c(Br)cc12)C1CCCC1 | 12

The molecule COc1ccc2cc(-c3nc(-c4ccccc4C(C)C)[nH]c3-c3ccncc3)ccc2c1 showed %Inh equal to 0

The molecule CNc1nc(-c2ccc3c(N)n[nH]c3c2)cc(N2C[C@@H](C(=O)NC3CCCCC3)OC[C@H]2C)n1 showed %Inh equal to 13

The molecule Fc1ccc(-c2nn3cccc(F)c3c2-c2ccncc2)cc1 showed %Inh equal to 0

The molecule CC(C)c1ccc(O)cc1Nc1ccnc2ccc(C(F)(F)F)cc12 showed %Inh equal to 0
